# ASSAY SYSTEM: DNA gyrase subunit B (Staphylococcus aureus, UniProt P0A0K8)
# Sequence (P0A0K8 whole entry): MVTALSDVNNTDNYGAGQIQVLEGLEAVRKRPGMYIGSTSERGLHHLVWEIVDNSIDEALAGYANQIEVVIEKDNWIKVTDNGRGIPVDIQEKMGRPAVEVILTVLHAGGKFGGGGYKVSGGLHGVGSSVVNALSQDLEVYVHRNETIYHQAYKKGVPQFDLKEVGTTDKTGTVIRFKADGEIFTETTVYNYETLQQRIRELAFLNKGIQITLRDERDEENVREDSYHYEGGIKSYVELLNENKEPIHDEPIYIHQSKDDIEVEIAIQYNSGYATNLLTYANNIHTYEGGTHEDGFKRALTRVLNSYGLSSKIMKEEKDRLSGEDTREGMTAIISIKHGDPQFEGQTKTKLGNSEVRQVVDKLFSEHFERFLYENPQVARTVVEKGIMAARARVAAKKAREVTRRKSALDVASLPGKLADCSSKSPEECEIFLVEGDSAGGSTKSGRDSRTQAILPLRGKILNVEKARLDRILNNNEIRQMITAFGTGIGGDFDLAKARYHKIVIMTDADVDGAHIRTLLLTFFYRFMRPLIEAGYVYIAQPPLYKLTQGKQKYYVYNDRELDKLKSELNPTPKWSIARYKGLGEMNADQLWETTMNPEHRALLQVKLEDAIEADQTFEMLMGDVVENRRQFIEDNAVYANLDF
# PROCEDURE SUMMARY: Inhibition of Staphylococcus aureus DNA gyrase B ATPase activity
pIC50: −log10 of the molar value.
PARAMETER: pIC50

>>> readout_value("O=C(O)CC(=O)Nc1ccc(-c2nc3cc(Cl)ccc3[nH]2)cc1")
4.58
>>> readout_value("O=C(O)CCCCC(=O)Nc1ccc(-c2nc3cc(F)ccc3[nH]2)cc1")
4.81
>>> readout_value("CCc1cc(=O)nc(SCC(=O)Nc2cccc(C(=O)O)c2)[nH]1")
4.19
>>> readout_value("COC(=O)CCCC(=O)Nc1ccc(-c2nc3cc(OC)ccc3[nH]2)cc1")
4.67
>>> readout_value("COC(=O)CCCC(=O)Nc1ccc(-c2nc3cc([N+](=O)[O-])ccc3[nH]2)cc1")
5.01
>>> readout_value("CC(Cc1c[nH]c2ccccc12)NC(=O)CSS(=O)(=O)O (centres undefined)")
4.05
>>> readout_value("O=C(O)CCCC(=O)Nc1ccc(-c2nc3cc([N+](=O)[O-])ccc3[nH]2)cc1")
5.17
>>> readout_value("O=C(O)CCC(=O)Nc1ccc(-c2nc3cccnc3[nH]2)cc1")
5.03
>>> readout_value("COc1ccc2[nH]c(-c3ccc(NC(=O)CCCC(=O)O)cc3)nc2c1")
5.05
>>> readout_value("O=C(O)COCC(=O)Nc1ccc(-c2nc3cc(Cl)ccc3[nH]2)cc1")
4.81
>>> readout_value("CCOc1cc(/C=C(\\C#N)c2nc3ccc(C)cc3[nH]2)ccc1OCC(=O)O")
4.09
>>> readout_value("O=C(O)CCC(=O)Nc1ccc(-c2nc3cc([N+](=O)[O-])ccc3[nH]2)cc1")
4.76
>>> readout_value("COc1ccc2[nH]c(-c3ccc(NC(=O)CCC(=O)O)cc3)nc2c1")
4.87
>>> readout_value("O=C(O)CCCCC(=O)Nc1ccc(-c2nc3cccnc3[nH]2)cc1")
5.54
>>> readout_value("Cc1cc2ncn(CC(O)COc3cccc(C(=O)O)c3)c2cc1C (centres undefined)")
4.89
>>> readout_value("O=c1nc(/C=C/c2ccc(/C=C/c3cc(C(F)(F)F)[nH]c(=O)n3)cc2)cc(C(F)(F)F)[nH]1")
4.37
>>> readout_value("O=C(O)CCCC(=O)Nc1ccc(-c2nc3ccccc3[nH]2)cc1")
4.90
>>> readout_value("O=C(O)CCC(=O)Nc1ccc(-c2nc3cc(Cl)ccc3[nH]2)cc1")
4.95
>>> readout_value("O=C(O)CCCC(=O)Nc1ccc(-c2nc3cccnc3[nH]2)cc1")
4.73
>>> readout_value("COc1ccc2[nH]c(-c3ccc(NC(=O)CSCC(=O)O)cc3)nc2c1")
5.03
>>> readout_value("COc1ccc2[nH]c(-c3ccc(NC(=O)CC(=O)O)cc3)nc2c1")
4.96
>>> readout_value("O=C(O)CSCC(=O)Nc1ccc(-c2nc3cc([N+](=O)[O-])ccc3[nH]2)cc1")
5.50
>>> readout_value("COC(=O)CCCC(=O)Nc1ccc(-c2nc3cc(F)ccc3[nH]2)cc1")
4.73
>>> readout_value("O=C(O)CCCC(=O)Nc1ccc(-c2nc3cc(F)ccc3[nH]2)cc1")
5.88

* * *

# ASSAY SYSTEM: DNA gyrase (Staphylococcus aureus, UniProt P0A0K8+P20831)
# Sequence (P0A0K8 whole entry): as above
# Sequence (P20831 whole entry): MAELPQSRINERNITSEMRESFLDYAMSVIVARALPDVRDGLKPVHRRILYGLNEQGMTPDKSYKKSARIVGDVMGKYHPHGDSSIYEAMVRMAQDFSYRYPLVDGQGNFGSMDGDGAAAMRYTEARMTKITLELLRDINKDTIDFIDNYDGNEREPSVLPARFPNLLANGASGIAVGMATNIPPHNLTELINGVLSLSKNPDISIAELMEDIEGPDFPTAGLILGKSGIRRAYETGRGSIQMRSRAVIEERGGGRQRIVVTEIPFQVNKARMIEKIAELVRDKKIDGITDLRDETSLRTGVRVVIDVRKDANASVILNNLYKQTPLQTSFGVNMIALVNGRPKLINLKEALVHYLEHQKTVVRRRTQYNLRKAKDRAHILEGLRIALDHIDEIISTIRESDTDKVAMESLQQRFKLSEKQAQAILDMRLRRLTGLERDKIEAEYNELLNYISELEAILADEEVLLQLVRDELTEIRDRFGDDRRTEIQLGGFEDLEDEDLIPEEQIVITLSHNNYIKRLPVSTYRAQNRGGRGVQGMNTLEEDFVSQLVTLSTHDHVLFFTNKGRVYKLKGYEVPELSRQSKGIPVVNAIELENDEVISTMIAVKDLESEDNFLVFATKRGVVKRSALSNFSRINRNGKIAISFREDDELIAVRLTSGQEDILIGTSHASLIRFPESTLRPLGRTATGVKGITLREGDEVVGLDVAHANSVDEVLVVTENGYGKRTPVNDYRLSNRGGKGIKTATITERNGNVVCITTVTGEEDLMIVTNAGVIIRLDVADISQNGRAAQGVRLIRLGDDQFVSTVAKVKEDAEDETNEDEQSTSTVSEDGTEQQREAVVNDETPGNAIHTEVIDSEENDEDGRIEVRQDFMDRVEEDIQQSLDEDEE
# PROCEDURE SUMMARY: Inhibition of Staphylococcus aureus DNA gyrase-mediated supercoiling of relaxed DNA using pBR 322 as substrate by agarose gel electrophoresis analysis
Rule: IC50 below 10 µM gives label 1. Equal to or above 10 µM gives label 0.

>>> class_assignment("O=C(O)CC(=O)Nc1ccc(-c2nc3cccnc3[nH]2)cc1")
"label 1"
>>> class_assignment("CNc1cc(CCNC(=O)c2ccc3oc(O)nc3c2)nc(-c2ccncc2)n1")
"label 0"
>>> class_assignment("O=C(O)CSCC(=O)Nc1ccc(-c2nc3cc(F)ccc3[nH]2)cc1")
"label 1"
>>> class_assignment("O=C(O)COCC(=O)Nc1ccc(-c2nc3cc(Cl)ccc3[nH]2)cc1")
"label 0"
>>> class_assignment("COC(=O)CCCC(=O)Nc1ccc(-c2nc3cc(F)ccc3[nH]2)cc1")
"label 0"
>>> class_assignment("O=C(O)CSCC(=O)Nc1ccc(-c2nc3ccccc3[nH]2)cc1")
"label 0"
>>> class_assignment("COc1ccc2[nH]c(-c3ccc(NC(=O)CSCC(=O)O)cc3)nc2c1")
"label 0"
>>> class_assignment("O=C(O)CC(=O)Nc1ccc(-c2nc3cc([N+](=O)[O-])ccc3[nH]2)cc1")
"label 1"
>>> class_assignment("O=C(O)CCCCC(=O)Nc1ccc(-c2nc3cccnc3[nH]2)cc1")
"label 1"

* * *

# Test system: Staphylococcus aureus
# PROCEDURE SUMMARY: Antimicrobial activity against methicillin-resistant Staphylococcus aureus MTCC 96 after 16 to 24 hrs by agar dilution method
# Type: functional
PARAMETER: MIC (µM)

>>> readout_value("COc1ccc2[nH]c(-c3ccc(NC(=O)CCCCC(=O)O)cc3)nc2c1")
34.1
>>> readout_value("COC(=O)CCCC(=O)Nc1ccc(-c2nc3cc(OC)ccc3[nH]2)cc1")
34
>>> readout_value("COc1ccc2[nH]c(-c3ccc(NC(=O)CC(=O)O)cc3)nc2c1")
76.8
>>> readout_value("COC(=O)CCCC(=O)Nc1ccc(-c2nc3ccccc3[nH]2)cc1")
148
>>> readout_value("O=C(O)CCC(=O)Nc1ccc(-c2nc3cc(Cl)ccc3[nH]2)cc1")
36.4
>>> readout_value("O=C(O)COCC(=O)Nc1ccc(-c2nc3cc(F)ccc3[nH]2)cc1")
9.1

* * *

# ASSAY SYSTEM: DNA gyrase (Staphylococcus aureus, UniProt P0A0K8+P20831)
# PROCEDURE SUMMARY: Inhibition of Staphylococcus aureus DNA gyrase-mediated supercoiling of relaxed DNA using pBR 322 as substrate by agarose gel electrophoresis analysis
pIC50: −log10 of the molar value.
Recorded pIC50, one value per entry.
PARAMETER: pIC50

>>> readout_value("O=C(O)CCCCC(=O)Nc1ccc(-c2nc3ccccc3[nH]2)cc1")
5.21
>>> readout_value("O=C(O)CCCC(=O)Nc1ccc(-c2nc3cc(Cl)ccc3[nH]2)cc1")
5.04
>>> readout_value("O=C(O)COCC(=O)Nc1ccc(-c2nc3cccnc3[nH]2)cc1")
5.33
>>> readout_value("O=C(O)CSCC(=O)Nc1ccc(-c2nc3cc([N+](=O)[O-])ccc3[nH]2)cc1")
5.68
>>> readout_value("O=C(O)CC(=O)Nc1ccc(-c2nc3cc(F)ccc3[nH]2)cc1")
4.79
>>> readout_value("O=C(O)CCC(=O)Nc1ccc(-c2nc3cc(F)ccc3[nH]2)cc1")
4.92
>>> readout_value("O=C(O)CCCC(=O)Nc1ccc(-c2nc3cccnc3[nH]2)cc1")
5.16
>>> readout_value("O=C(O)CSCC(=O)Nc1ccc(-c2nc3cccnc3[nH]2)cc1")
5.77
>>> readout_value("O=C(O)CCCC(=O)Nc1ccc(-c2nc3cc(F)ccc3[nH]2)cc1")
5.95
>>> readout_value("COC(=O)CCCC(=O)Nc1ccc(-c2nc3cc(OC)ccc3[nH]2)cc1")
4.90
>>> readout_value("O=C(O)CCC(=O)Nc1ccc(NC(=O)c2ccco2)cc1")
5.51
>>> readout_value("O=C(O)CCC(=O)Nc1ccc(-c2nc3cc(Cl)ccc3[nH]2)cc1")
5.01
>>> readout_value("COc1ccc2[nH]c(-c3ccc(NC(=O)CCC(=O)O)cc3)nc2c1")
4.95
>>> readout_value("Cc1sc2nc(SCC(=O)Nc3cccc(C(=O)O)c3)nc(O)c2c1C")
5.09
>>> readout_value("O=C(O)CC(=O)Nc1ccc(-c2nc3cc(Cl)ccc3[nH]2)cc1")
4.74
>>> readout_value("COc1ccc2[nH]c(-c3ccc(NC(=O)CC(=O)O)cc3)nc2c1")
4.74
>>> readout_value("Cc1cc2ncn(CC(O)COc3cccc(C(=O)O)c3)c2cc1C (stereo not drawn)")
5.51
>>> readout_value("O=C(O)CCC(=O)Nc1ccc(-c2nc3ccccc3[nH]2)cc1")
5.21
>>> readout_value("O=C(O)CCCCC(=O)Nc1ccc(-c2nc3cc(F)ccc3[nH]2)cc1")
5.15
>>> readout_value("COC(=O)CCCC(=O)Nc1ccc(-c2nc3ccccc3[nH]2)cc1")
4.60
>>> readout_value("COc1ccc2[nH]c(-c3ccc(NC(=O)CCCCC(=O)O)cc3)nc2c1")
4.90
>>> readout_value("O=C(O)CCCC(=O)Nc1ccc(-c2nc3cc([N+](=O)[O-])ccc3[nH]2)cc1")
5.21
>>> readout_value("O=C(O)CCC(=O)Nc1ccc(-c2nc3cc([N+](=O)[O-])ccc3[nH]2)cc1")
5.08
>>> readout_value("O=c1nc(/C=C/c2ccc(/C=C/c3cc(C(F)(F)F)[nH]c(=O)n3)cc2)cc(C(F)(F)F)[nH]1")
4.60
>>> readout_value("COC(=O)CCCC(=O)Nc1ccc(-c2nc3cc(Cl)ccc3[nH]2)cc1")
4.65
>>> readout_value("COc1ccc2[nH]c(-c3ccc(NC(=O)COCC(=O)O)cc3)nc2c1")
5.51
>>> readout_value("O=C(O)COCC(=O)Nc1ccc(-c2nc3cc(F)ccc3[nH]2)cc1")
5.54
>>> readout_value("O=C(O)COCC(=O)Nc1ccc(-c2nc3ccccc3[nH]2)cc1")
5.32
>>> readout_value("O=C(O)CCCC(=O)Nc1ccc(-c2nc3ccccc3[nH]2)cc1")
5.54
>>> readout_value("COC(=O)CCCC(=O)Nc1ccc(-c2nc3cccnc3[nH]2)cc1")
5.17
>>> readout_value("COc1ccc2[nH]c(-c3ccc(NC(=O)CCCC(=O)O)cc3)nc2c1")
5.27
>>> readout_value("O=C(O)CC(=O)Nc1ccc(-c2nc3ccccc3[nH]2)cc1")
5.21
>>> readout_value("O=C(O)CCCCC(=O)Nc1ccc(-c2nc3cc([N+](=O)[O-])ccc3[nH]2)cc1")
5.22
>>> readout_value("O=C(O)CCCCC(=O)Nc1ccc(-c2nc3cc(Cl)ccc3[nH]2)cc1")
5.05
>>> readout_value("O=C(O)CCC(=O)Nc1ccc(-c2nc3cccnc3[nH]2)cc1")
5.51
>>> readout_value("O=C(O)CSCC(=O)Nc1ccc(-c2nc3cc(Cl)ccc3[nH]2)cc1")
4.92
>>> readout_value("O=C(O)COCC(=O)Nc1ccc(-c2nc3cc([N+](=O)[O-])ccc3[nH]2)cc1")
5.24
>>> readout_value("COC(=O)CCCC(=O)Nc1ccc(-c2nc3cc([N+](=O)[O-])ccc3[nH]2)cc1")
5.28
>>> readout_value("CC(=O)Nc1ccc(OCC[n+]2ccc(CCS(=O)(=O)[O-])cc2)cc1")
4.35
